Give pIC50 for every item shown.
# EXPERIMENTAL TARGET: Replicase polyprotein 1a (Severe acute respiratory syndrome-related coronavirus)
Reminder that pIC50 is minus the log10 of a molar concentration.

Request: Item Cc1cc2cc(CN(CCc3ccccc3C)C(=O)NCc3ccccc3)c(=O)[nH]c2cc1C has what recorded pIC50?
Response: 4.76

Request: Another compound to check: O=C(CSc1nc(C2CCCCC2)nc2ccccc12)NCc1ccco1
Response: 4.74
